Reported values: MIC for MRSA-2, one per item.
Enter your answer as a number in µM; do not include the unit.

Inquiry: State the recorded MIC for this entry: CCCCCCCC[P+](c1ccccc1)(N(CC)CC)N(CC)CC
Reply text: 15.6

Inquiry: State the recorded MIC for this entry: CCCCCC[P+](c1ccccc1)(c1ccccc1)N(CC)CC
Reply text: 62.5

Inquiry: State the recorded MIC for this entry: CCn1cc(C(=O)O)c(=O)c2cc(F)c(N3CCNCC3)cc21 [Norfloxacin, reference compound]
Reply text: 7.5

Inquiry: State the recorded MIC for this entry: CCCCCCCCCC[P+](c1ccccc1)(c1ccccc1)N(CC)CC
Reply text: 0.5

Inquiry: State the recorded MIC for this entry: CCN(CC)[P+](CCCCCC[P+](N(CC)CC)(N(CC)CC)N(CC)CC)(N(CC)CC)N(CC)CC
Reply text: 34.3

Inquiry: State the recorded MIC for this entry: CCCCCCCCCCCCCC[P+](c1ccccc1)(c1ccccc1)N(CC)CC
Reply text: 0.5

Inquiry: State the recorded MIC for this entry: CCCCCCCC[P+](c1ccccc1)(c1ccccc1)N(CC)CC
Reply text: 7.8

Inquiry: State the recorded MIC for this entry: CCCCCCCCC[P+](c1ccccc1)(c1ccccc1)N(CC)CC
Reply text: 3.9

Inquiry: State the recorded MIC for this entry: CCCCCCCC[N+](CC)(CC)CC [compound 7, Triethyloctylammonium iodide, reference compound]
Reply text: 250

---

# Tested on: HuTu 80
# test details: cells
# run conditions: Homo sapiens, HuTu80, 48 h, read-out: Cytotoxic Effects (IC50)
property: IC50
# do not omit the unit; it follows the number

Inquiry: State the recorded IC50 for this entry: CCCCCCCCCC[P+](c1ccccc1)(c1ccccc1)N(CC)CC
Reply text: 350 nM

Inquiry: State the recorded IC50 for this entry: CCCCCC[P+](c1ccccc1)(N(CC)CC)N(CC)CC
Reply text: 300 nM

Inquiry: State the recorded IC50 for this entry: CCCCCCCC[P+](N(CC)CC)(N(CC)CC)N(CC)CC
Reply text: 3200 nM

Inquiry: State the recorded IC50 for this entry: CCCCCC[P+](c1ccccc1)(c1ccccc1)N(CC)CC
Reply text: 100 nM

Inquiry: State the recorded IC50 for this entry: CCCCCCCC[N+](CC)(CC)CC [compound 7, Triethyloctylammonium iodide, reference compound]
Reply text: 1900 nM

---

Kindly supply the reported MIC values for the records listed here.
Enter your answer as a number in µM; do not include the unit.

Inquiry: Quick check: MIC on Bacillus cereus ATCC 10702 NCTC 8035, item CCCCCCCCC[P+](N(CC)CC)(N(CC)CC)N(CC)CC ?
Reply text: 3.9

Inquiry: Quick check: MIC on Bacillus cereus ATCC 10702 NCTC 8035, item CCCCCC[P+](c1ccccc1)(c1ccccc1)N(CC)CC ?
Reply text: 31.3

Inquiry: Quick check: MIC on Bacillus cereus ATCC 10702 NCTC 8035, item CCCCCCCCCCCCCC[P+](c1ccccc1)(c1ccccc1)N(CC)CC ?
Reply text: 0.9

Inquiry: Quick check: MIC on Bacillus cereus ATCC 10702 NCTC 8035, item CCCCCCCCCCCCCC[P+](N(CC)CC)(N(CC)CC)N(CC)CC ?
Reply text: 0.5

Inquiry: Quick check: MIC on Bacillus cereus ATCC 10702 NCTC 8035, item CCCCCCCCC[P+](c1ccccc1)(c1ccccc1)N(CC)CC ?
Reply text: 1.9

Inquiry: Quick check: MIC on Bacillus cereus ATCC 10702 NCTC 8035, item CCCCCCCCC[P+](c1ccccc1)(N(CC)CC)N(CC)CC ?
Reply text: 3.9

Inquiry: Quick check: MIC on Bacillus cereus ATCC 10702 NCTC 8035, item CCN(CC)[P+](CCCCCC[P+](N(CC)CC)(N(CC)CC)N(CC)CC)(N(CC)CC)N(CC)CC ?
Reply text: 274

Inquiry: Quick check: MIC on Bacillus cereus ATCC 10702 NCTC 8035, item CCCCCCCC[P+](c1ccccc1)(c1ccccc1)N(CC)CC ?
Reply text: 3.9

Inquiry: Quick check: MIC on Bacillus cereus ATCC 10702 NCTC 8035, item CCCCCCCC[P+](c1ccccc1)(N(CC)CC)N(CC)CC ?
Reply text: 7.8

Inquiry: Quick check: MIC on Bacillus cereus ATCC 10702 NCTC 8035, item CCCCCCCCCC[P+](N(CC)CC)(N(CC)CC)N(CC)CC ?
Reply text: 0.9
